experiment: Intrinsic clearance in rat liver microsomes assessed per mg protein incubated for 10 mins followed by potassium phosphate buffer addition and measured up to 60 mins by LC-MS analysis; assay type: ADME, Microsome; conditions: time <=70 min, read-out: CLH
PROPERTY LABEL: microsomal CLint (µL/min/mg)
Output spec: scalar in µL/min/mg, unitless text.

Field microsomal CLint (entry CC(O)(C#Cc1ccc2nccc(-c3cn[nH]c3)c2c1)c1nccs1 (stereo unspecified) ) reads 110

----------
assay: Elimination half life in dog liver microsomes incubated for 10 mins followed by potassium phosphate buffer addition and measured up to 60 mins by LC-MS analysis; format: ADME, Canis lupus familiaris, Microsome; conditions: time <=70 min, read-out: LambdaZ
PROPERTY LABEL: half-life
Report field: quantity (unit follows the number).

Field half-life (entry CC(O)(C#Cc1ccc2nccc(-c3cn[nH]c3)c2c1)c1nccs1 (stereo unspecified) ) reads 14.2 min

----------
experiment: AUC (0 to infinity) in Sprague-Dawley rat at 10 mg/kg, po administered as single dose by LC-MS analysis; assay type: ADME, organism-based; design: route oral, time infinity, dose 10 mg/kg; details: in vivo
PROPERTY LABEL: AUC(0-inf) (ng·h/mL)
Output spec: scalar in ng·h/mL, unitless text.

Field AUC(0-inf) (entry CC(O)(C#Cc1ccc2nccc(-c3cn[nH]c3)c2c1)c1nccs1 (stereo unspecified) ) reads 885

----------
assay: Cmax in Sprague-Dawley rat at 10 mg/kg, po administered as single dose by LC-MS analysis; type: ADME, organism-based; design: route oral, dose 10 mg/kg; settings: in vivo
PROPERTY LABEL: Cmax (ng/mL)
Output spec: scalar in ng/mL, unitless text.

Field Cmax (entry CC(O)(C#Cc1ccc2nccc(-c3cn[nH]c3)c2c1)c1nccs1 (stereo unspecified) ) reads 311

----------
biological target: Mitogen-activated protein kinase kinase kinase 14 (Homo sapiens, UniProt Q99558); assay: Inhibition of recombinant N-terminal GST-fused human NIK (319 to 947 residues) expressed in baculovirus expression system incubated for 120 mins in presence of ATP by ADP-glo based luminescence assay
Sequence (Q99558 whole entry, the tested form may be a part): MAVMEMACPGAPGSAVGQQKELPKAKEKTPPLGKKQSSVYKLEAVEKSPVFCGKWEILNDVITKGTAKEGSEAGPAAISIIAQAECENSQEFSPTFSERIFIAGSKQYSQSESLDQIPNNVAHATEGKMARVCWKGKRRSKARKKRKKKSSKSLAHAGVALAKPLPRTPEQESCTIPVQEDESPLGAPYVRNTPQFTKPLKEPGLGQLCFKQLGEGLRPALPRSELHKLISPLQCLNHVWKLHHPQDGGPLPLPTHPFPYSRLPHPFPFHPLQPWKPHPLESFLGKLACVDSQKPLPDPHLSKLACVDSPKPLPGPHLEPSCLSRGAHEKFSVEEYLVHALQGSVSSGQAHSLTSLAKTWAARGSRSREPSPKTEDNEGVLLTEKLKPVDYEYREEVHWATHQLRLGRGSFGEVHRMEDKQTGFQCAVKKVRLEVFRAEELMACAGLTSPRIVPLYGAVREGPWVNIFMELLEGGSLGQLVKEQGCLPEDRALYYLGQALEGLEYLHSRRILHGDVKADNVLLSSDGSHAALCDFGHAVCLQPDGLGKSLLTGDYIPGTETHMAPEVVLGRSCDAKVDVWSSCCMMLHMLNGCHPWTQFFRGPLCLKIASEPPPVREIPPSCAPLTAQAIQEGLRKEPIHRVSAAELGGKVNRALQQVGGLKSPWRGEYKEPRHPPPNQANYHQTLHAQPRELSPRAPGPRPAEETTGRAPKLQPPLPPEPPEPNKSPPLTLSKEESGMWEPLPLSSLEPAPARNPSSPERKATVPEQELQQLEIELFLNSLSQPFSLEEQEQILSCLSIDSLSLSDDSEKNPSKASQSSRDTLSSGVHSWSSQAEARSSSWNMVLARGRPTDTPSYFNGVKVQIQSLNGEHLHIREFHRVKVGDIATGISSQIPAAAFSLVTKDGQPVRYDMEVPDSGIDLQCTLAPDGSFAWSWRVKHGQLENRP
PROPERTY LABEL: pIC50
pIC50 here is simply -log10 of the concentration when that concentration is written in mol/L.

Mitogen-activated protein kinase kinase kinase 14 (Homo sapiens, UniProt Q99558) assay, molecule CC(O)(C#Cc1ccc2nccc(-c3cn[nH]c3)c2c1)c1cccs1 (stereo not given) , recorded pIC50 = 6.28

Mitogen-activated protein kinase kinase kinase 14 (Homo sapiens, UniProt Q99558) assay, molecule CC(O)(C#Cc1ccc2c(c1)N(c1nc(N)ncc1Cl)CC2)c1nccs1 (stereo not given) , recorded pIC50 = 8.31

Mitogen-activated protein kinase kinase kinase 14 (Homo sapiens, UniProt Q99558) assay, molecule OC1(C#Cc2ccc3nccc(-c4cn[nH]c4)c3c2)CCCC1 , recorded pIC50 = 6.25

Mitogen-activated protein kinase kinase kinase 14 (Homo sapiens, UniProt Q99558) assay, molecule CC(O)(C#Cc1ccc2nccc(-c3cn[nH]c3)c2c1)c1nccs1 (stereo not given) , recorded pIC50 = 7.66

Mitogen-activated protein kinase kinase kinase 14 (Homo sapiens, UniProt Q99558) assay, molecule CC(O)(C#Cc1ccc2nccc(-c3cn[nH]c3)c2c1)c1ccccn1 (stereo not given) , recorded pIC50 = 6.23

Mitogen-activated protein kinase kinase kinase 14 (Homo sapiens, UniProt Q99558) assay, molecule OC1(C#Cc2ccc3nccc(-c4cn[nH]c4)c3c2)CCCCC1 , recorded pIC50 = 5.22

Mitogen-activated protein kinase kinase kinase 14 (Homo sapiens, UniProt Q99558) assay, molecule CN(C)CCN(C)c1cc(-c2cn[nH]c2)c2cc(C#CC(C)(O)c3nccs3)ccc2n1 (stereo not given) , recorded pIC50 = 6.80

Mitogen-activated protein kinase kinase kinase 14 (Homo sapiens, UniProt Q99558) assay, molecule CC(O)(C#Cc1ccc2nc(O)cc(-c3cn[nH]c3)c2c1)c1nccs1 (stereo not given) , recorded pIC50 = 7.41

Mitogen-activated protein kinase kinase kinase 14 (Homo sapiens, UniProt Q99558) assay, molecule CNc1cc(-c2cn[nH]c2)c2cc(C#CC(C)(O)c3nccs3)ccc2n1 (stereo not given) , recorded pIC50 = 7.59

Mitogen-activated protein kinase kinase kinase 14 (Homo sapiens, UniProt Q99558) assay, molecule CN1CCN(c2cc(-c3cn[nH]c3)c3cc(C#CC(C)(O)c4nccs4)ccc3n2)CC1 (stereo not given) , recorded pIC50 = 6.76

----------
target: Mitogen-activated protein kinase kinase kinase 14 (Homo sapiens, UniProt Q99558); assay: Inhibition of recombinant N-terminal GST-fused human NIK (319 to 947 residues) expressed in baculovirus expression system incubated for 120 mins in presence of ATP by ADP-glo based luminescence assay
PROPERTY LABEL: IC50 (nM)
Output spec: scalar in nM, unitless text.

Field IC50 (entry CC(C)(O)C#Cc1ccc2nccc(-c3cn[nH]c3)c2c1 ) reads 1720

Field IC50 (entry COCCN(C)c1cc(-c2cn[nH]c2)c2cc(C#CC(C)(O)c3nccs3)ccc2n1 (stereo not drawn) ) reads 5.2

Field IC50 (entry CC(O)(/C=C/c1ccc2nccc(-c3cn[nH]c3)c2c1)c1nccs1 (stereo not drawn) ) reads 2080

----------
experiment: Elimination half life in monkey liver microsomes incubated for 10 mins followed by potassium phosphate buffer addition and measured up to 60 mins by LC-MS analysis; format: ADME, Macaca mulatta, Microsome; conditions: rhesus monkey, time <=70 min, read-out: LambdaZ
PROPERTY LABEL: half-life (min)
Output spec: scalar in min, unitless text.

Field half-life (entry CC(O)(C#Cc1ccc2nccc(-c3cn[nH]c3)c2c1)c1nccs1 (stereo unspecified) ) reads 33.2

----------
assay: AUC (0 to infinity) in Sprague-Dawley rat at 1 mg/kg, iv administered as single bolus dose by LC-MS analysis; format: ADME, organism-based; design: route intravenous, time infinity, dose 1 mg/kg; settings: in vivo
PROPERTY LABEL: AUC(0-inf) (µg·h/mL)
Output spec: scalar in µg·h/mL, unitless text.

Field AUC(0-inf) (entry CC(O)(C#Cc1ccc2nccc(-c3cn[nH]c3)c2c1)c1nccs1 (stereo unspecified) ) reads 0.408

----------
experiment: Elimination half life in rat liver microsomes incubated for 10 mins followed by potassium phosphate buffer addition and measured up to 60 mins by LC-MS analysis; format: ADME, Microsome; details: time <=70 min, read-out: LambdaZ
PROPERTY LABEL: half-life (min)
Output spec: scalar in min, unitless text.

Field half-life (entry CC(O)(C#Cc1ccc2nccc(-c3cn[nH]c3)c2c1)c1nccs1 (stereo unspecified) ) reads 12.6

----------
assay: Intrinsic clearance in monkey liver microsomes assessed per mg protein incubated for 10 mins followed by potassium phosphate buffer addition and measured up to 60 mins by LC-MS analysis; type: ADME, Macaca mulatta, Microsome; conditions: rhesus monkey, time <=70 min, read-out: CLH
PROPERTY LABEL: microsomal CLint (µL/min/mg)
Output spec: scalar in µL/min/mg, unitless text.

Field microsomal CLint (entry CC(O)(C#Cc1ccc2nccc(-c3cn[nH]c3)c2c1)c1nccs1 (stereo unspecified) ) reads 41.8

----------
assay: Half life in Sprague-Dawley rat at 1 mg/kg, iv administered as single bolus dose by LC-MS analysis; assay type: ADME, organism-based; conditions: in vivo
PROPERTY LABEL: half-life (min)
Output spec: scalar in min, unitless text.

Field half-life (entry CC(O)(C#Cc1ccc2nccc(-c3cn[nH]c3)c2c1)c1nccs1 (stereo unspecified) ) reads 22.9

----------
For each entry below, report its Activity value.
target: Mitogen-activated protein kinase kinase kinase 14 (Homo sapiens); test: Inhibition of recombinant N-terminal GST-fused human NIK (319 to 947 residues) expressed in baculovirus expression system assessed as residual activity at 2 uM incubated for 120 mins in presence of ATP by ADP-glo based luminescence assay relative to control
Sequence (Q99558 whole entry, looked up, the tested form may be a part): as the sequence (Q99558 whole entry, the tested form may be a part) above
Output spec: scalar in %, unitless text.

Mitogen-activated protein kinase kinase kinase 14 (Homo sapiens) assay, molecule O=C(Nc1ccc2nccc(-c3cn[nH]c3)c2c1)c1nccs1 , recorded Activity = 72.3

Mitogen-activated protein kinase kinase kinase 14 (Homo sapiens) assay, molecule O=C(Nc1ccc2nccc(-c3cn[nH]c3)c2c1)C1CCCC1 , recorded Activity = 83.6

Mitogen-activated protein kinase kinase kinase 14 (Homo sapiens) assay, molecule CC(O)(C#Cc1ccc2nc(OCCN3CCOCC3)cc(-c3cn[nH]c3)c2c1)c1nccs1 (centres undefined) , recorded Activity = 92

Mitogen-activated protein kinase kinase kinase 14 (Homo sapiens) assay, molecule Cn1cc(-c2ccnc3ccc(C#CC(C)(C)O)cc23)cn1 , recorded Activity = 99.1

----------
experiment: Intrinsic clearance in human liver microsomes assessed per mg protein incubated for 10 mins followed by potassium phosphate buffer addition and measured up to 60 mins by LC-MS analysis; type: ADME, Microsome; conditions: time <=70 min, read-out: CLH
PROPERTY LABEL: microsomal CLint (µL/min/mg)
Output spec: scalar in µL/min/mg, unitless text.

Field microsomal CLint (entry CC(O)(C#Cc1ccc2nccc(-c3cn[nH]c3)c2c1)c1nccs1 (stereo unspecified) ) reads 42.6
